# Protocol notes: activity coefficient (dimensionless); of the first substance listed, at infinite dilution; xn = mol fraction of the nth substance listed
# Applied conditions: 348.15 K; Liquid; Chromatography; x1 = 0
Observable: activity coefficient
# respond with the number and nothing more

Before answering, review these 6 worked examples.
Compound: CCCCC(C)=O [2-hexanone] + CCn1cc[n+](C)c1.N#C[B-](C#N)(C#N)C#N
Measurement: 1.17
--
Compound: C1CCOC1 [tetrahydrofuran] + CCn1cc[n+](C)c1.N#C[B-](C#N)(C#N)C#N
Measurement: 0.775
--
Compound: Cc1ccc(C)cc1 [1,4-dimethylbenzene] + CCn1cc[n+](C)c1.N#C[B-](C#N)(C#N)C#N
Measurement: 2.52
--
Compound: CCCCCCCC [octane] + CCn1cc[n+](C)c1.N#C[B-](C#N)(C#N)C#N
Measurement: 50.2
--
Compound: c1ccccc1 [benzene] + CCn1cc[n+](C)c1.N#C[B-](C#N)(C#N)C#N
Measurement: 1.2
--
Compound: CCCCCCCCC [nonane] + CCn1cc[n+](C)c1.N#C[B-](C#N)(C#N)C#N
Measurement: 73.2

The recorded activity coefficient for C#CCCCCC [1-heptyne] + CCn1cc[n+](C)c1.N#C[B-](C#N)(C#N)C#N is 5.39
